- target_or_system: gp41 six-helix bundle formed by N36 and C34 (Human immunodeficiency virus type 1 group M subtype B)
- measurement_context: single dose 25 μg/ml
measured_endpoint: inhibition of six-helix bundle formation between N36 and C34 (screening ELISA)

In [3]: df
Out[3]:
                                   molecule              measurement
0    Cc1ccc(C)n1-c1ccc(C(=O)O)c(O)c1 [NB-2]  significantly inhibited
1  Cc1ccc(C)n1-c1cccc(O)c1 [NB-177, reference compound]   no inhibitory activity
2        O=C(O)c1cc(-n2cccc2)ccc1Cl [NB-64]  significantly inhibited
3  Clc1ccc(-n2cccc2)cc1 [NB-178, reference compound]   no inhibitory activity

----------
- System: HIV-1IIIB
- assay: inhibition of HIV-1IIIB replication (p24 production) in MT-2 cells
- Assay type: cell-based
- measurement_context: concentration up to 80 μg/ml
measured_endpoint: inhibitory activity on HIV-1IIIB replication

In [3]: df
Out[3]:
                                   molecule              measurement
0  Cc1ccc(C)n1-c1cccc(O)c1 [NB-177, reference compound]   no inhibitory activity
1  Clc1ccc(-n2cccc2)cc1 [NB-178, reference compound]   no inhibitory activity
2        O=C(O)c1cc(-n2cccc2)ccc1Cl [NB-64]  significantly inhibited
3    Cc1ccc(C)n1-c1ccc(C(=O)O)c(O)c1 [NB-2]  significantly inhibited

----------
- target_or_system: gp41 six-helix bundle formed by N36 and C34 (Human immunodeficiency virus type 1 group M subtype B, UniProt P04578)
- Sequence (P04578 546-581): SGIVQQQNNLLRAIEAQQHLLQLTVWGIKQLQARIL
- measurement_context: graded concentrations, up to 80 μg/ml; compound preincubated with N36
- Procedure: ELISA for screening for compounds that inhibit the gp41 six-helix bundle formation. A sandwich ELISA as previously described (23) was used to screen for compounds that inhibit the gp41 six-helix bundle formation. Briefly, peptide N36 (2 μM) was pre-incubated with a test compound at the indicated concentrations at 37° C. for 30 min, followed by addition of C34 (2 μM). […] Absorbance at 450 nm was measured using an ELISA reader (Ultra 384, Tecan, Research Triangle Park, N.C.). […]
measured_endpoint: inhibitory activity on gp41 six-helix bundle formation (sandwich ELISA)

In [3]: df
Out[3]:
                                   molecule              measurement
0  Cc1ccc(C)n1-c1cccc(O)c1 [NB-177, reference compound]   no inhibitory activity
1           Cc1ccc(C)n1-c1ccc(C(=O)O)c(O)c1  significantly inhibited
2  Clc1ccc(-n2cccc2)cc1 [NB-178, reference compound]   no inhibitory activity
3                O=C(O)c1cc(-n2cccc2)ccc1Cl  significantly inhibited

This collection of values is drawn from patent US7241803B2.
